Where do the numbers come from? From the supplement of paper PMC10567573.

Would you kindly list protein stability index for each of these variants?
B1: PTPN9 (parent)
chain: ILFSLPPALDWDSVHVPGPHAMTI

- Variants of: B1
- protocol-notes: protein stability index of a GFP-peptide fusion (GPS, HEK-293T) (PSI 1-6); higher = more stable;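 note: lentivirally expressed fusions sorted by FACS into six bins by GFP to DsRed ratio, PSI derived from sequencing read proportions per bin multiplied by bin number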
- condition-set: c terminus: a fixed tail appended

Would you kindly share the measured protein stability index for ILFSLPPAKDWDSVHVPGPHAMTI [L9K] ? 2.63

Next record, please: ILFSLPPALDWDSVHVHGPHAMTI [P17H] 1.42

Next record, please: ILFSLPPAMDWDSVHVPGPHAMTI [L9M] 2.52

Next record, please: ILFSLPPALDWDSVHVPWPHAMTI [G18W] 3.41

Next record, please: ILFSLLPALDWDSVHVPGPHAMTI [P6L] 4.02

Next record, please: ILFSLPPALDWDSVHVPGPNAMTI [H20N] 2.59

Next record, please: ILFSLPPALDWDSVHVPGPMAMTI [H20M] 2.88

Next record, please: ILFSLPIALDWDSVHVPGPHAMTI [P7I] 2.49

Next record, please: ILFSLPPALDWDSVHVPGPHAMNI [T23N] 3.27

Next record, please: ILFSLPPALDWDSVHVPGLHAMTI [P19L] 2.44

Next record, please: ILFSLPPALDWDSVHVPGYHAMTI [P19Y] 3.1

Next record, please: ILFSLPPALDWDSVKVPGPHAMTI [H15K] 2.48

Next record, please: ILFSLPPMLDWDSVHVPGPHAMTI [A8M] 4.44

Next record, please: ILFSLPPALDWDSVHVNGPHAMTI [P17N] 2.71

Next record, please: ILFSLPPALDWDQVHVPGPHAMTI [S13Q] 2.06

Next record, please: ILFSLQPALDWDSVHVPGPHAMTI [P6Q] 2.46

Next record, please: ILFSLPPALDWDSVHVDGPHAMTI [P17D] 2.21

Next record, please: ILFSLPPALDWDYVHVPGPHAMTI [S13Y] 3.24

Next record, please: ILFSLPPALDWDSDHVPGPHAMTI [V14D] 1.5

Next record, please: ILFSLPPALDWDSVHVPGPHAKTI [M22K] 1.39

Next record, please: ILFSLPPALDSDSVHVPGPHAMTI [W11S] 1.9

Next record, please: IIFSLPPALDWDSVHVPGPHAMTI [L2I] 3.33

Next record, please: ILFSLPPALDWDSVHVPGPHADTI [M22D] 1.91

Next record, please: ILFSLPPALDLDSVHVPGPHAMTI [W11L] 2.72

Next record, please: ILFSLYPALDWDSVHVPGPHAMTI [P6Y] 2.91

Next record, please: ILFSLPPALDWDSVHVPNPHAMTI [G18N] 2.76

Next record, please: ILFSLRPALDWDSVHVPGPHAMTI [P6R] 3.66

Next record, please: ILFSLPPALDWDSVHVPRPHAMTI [G18R] 2.19

Next record, please: VLFSLPPALDWDSVHVPGPHAMTI [I1V] 3.38

Next record, please: ILWSLPPALDWDSVHVPGPHAMTI [F3W] 1.61

Next record, please: ILFSLPPAEDWDSVHVPGPHAMTI [L9E] 1.93

Next record, please: IFFSLPPALDWDSVHVPGPHAMTI [L2F] 2.06

Next record, please: ILFSLPPALDWDSVHVPGPHLMTI [A21L] 2.86

Next record, please: ILFSLPPALDWDSVHVPSPHAMTI [G18S] 2.4

Next record, please: ILFSLWPALDWDSVHVPGPHAMTI [P6W] 2.15

Next record, please: ILFSLPPALDWDSVHVPGPHWMTI [A21W] 1.23

Next record, please: ILFSLPPALDWDNVHVPGPHAMTI [S13N] 1.81

Next record, please: ILFWLPPALDWDSVHVPGPHAMTI [S4W] 2.79

Next record, please: ILFSLPPALDWDSVHVPGPHYMTI [A21Y] 3.24

Next record, please: DLFSLPPALDWDSVHVPGPHAMTI [I1D] 2.17

Next record, please: ILFSLFPALDWDSVHVPGPHAMTI [P6F] 1.95

Next record, please: ILFSLPPALDWDSVHVPGPHAMQI [T23Q] 2.73

Next record, please: ILFSLPPALDWDSVHVPGPHAPTI [M22P] 1.77

Next record, please: ILFSLPPALDWDSVHVPGTHAMTI [P19T] 1.89

Next record, please: ILFSNPPALDWDSVHVPGPHAMTI [L5N] 1.32

Next record, please: ILHSLPPALDWDSVHVPGPHAMTI [F3H] 2.03
